target: UniProt Q06278; details: hepatocytes, 2 h, 10 µM
Description: Drug metabolism in pooled human hepatocytes assessed as aldehyde oxidase-mediated drug metabolism at 10 uM up to 120 mins by HPLC analysis in presence of 25 uM of hydralazine
Listed here: items and their measured Fm.
measured-quantity: Fm

                                   molecule  result
0  CCNC(=O)OC1CCN(c2nncc3cc(OC)c(OC)cc23)CC1    0.49
1  N=C(N)NC(=O)c1cnn(-c2cccc3ncccc23)c1C1CC1 [ZONIPORIDE]    0.64
2    Cc1ncc2n1-c1ccc(Cl)cc1C(c1ccccc1F)=NC2    0.08
3  CCN(C(C)=O)c1cccc(-c2ccnc3c(C#N)cnn23)c1     0.7
4         CN(C)CCNC(=O)c1cccc2cc3ccccc3nc12    0.53

====

Listed here: items and their measured Fm.
molecular target: Aldehyde oxidase (Homo sapiens, UniProt Q06278); settings: hepatocytes, 2 h, 10 µM
Sequence (Q06278 whole entry): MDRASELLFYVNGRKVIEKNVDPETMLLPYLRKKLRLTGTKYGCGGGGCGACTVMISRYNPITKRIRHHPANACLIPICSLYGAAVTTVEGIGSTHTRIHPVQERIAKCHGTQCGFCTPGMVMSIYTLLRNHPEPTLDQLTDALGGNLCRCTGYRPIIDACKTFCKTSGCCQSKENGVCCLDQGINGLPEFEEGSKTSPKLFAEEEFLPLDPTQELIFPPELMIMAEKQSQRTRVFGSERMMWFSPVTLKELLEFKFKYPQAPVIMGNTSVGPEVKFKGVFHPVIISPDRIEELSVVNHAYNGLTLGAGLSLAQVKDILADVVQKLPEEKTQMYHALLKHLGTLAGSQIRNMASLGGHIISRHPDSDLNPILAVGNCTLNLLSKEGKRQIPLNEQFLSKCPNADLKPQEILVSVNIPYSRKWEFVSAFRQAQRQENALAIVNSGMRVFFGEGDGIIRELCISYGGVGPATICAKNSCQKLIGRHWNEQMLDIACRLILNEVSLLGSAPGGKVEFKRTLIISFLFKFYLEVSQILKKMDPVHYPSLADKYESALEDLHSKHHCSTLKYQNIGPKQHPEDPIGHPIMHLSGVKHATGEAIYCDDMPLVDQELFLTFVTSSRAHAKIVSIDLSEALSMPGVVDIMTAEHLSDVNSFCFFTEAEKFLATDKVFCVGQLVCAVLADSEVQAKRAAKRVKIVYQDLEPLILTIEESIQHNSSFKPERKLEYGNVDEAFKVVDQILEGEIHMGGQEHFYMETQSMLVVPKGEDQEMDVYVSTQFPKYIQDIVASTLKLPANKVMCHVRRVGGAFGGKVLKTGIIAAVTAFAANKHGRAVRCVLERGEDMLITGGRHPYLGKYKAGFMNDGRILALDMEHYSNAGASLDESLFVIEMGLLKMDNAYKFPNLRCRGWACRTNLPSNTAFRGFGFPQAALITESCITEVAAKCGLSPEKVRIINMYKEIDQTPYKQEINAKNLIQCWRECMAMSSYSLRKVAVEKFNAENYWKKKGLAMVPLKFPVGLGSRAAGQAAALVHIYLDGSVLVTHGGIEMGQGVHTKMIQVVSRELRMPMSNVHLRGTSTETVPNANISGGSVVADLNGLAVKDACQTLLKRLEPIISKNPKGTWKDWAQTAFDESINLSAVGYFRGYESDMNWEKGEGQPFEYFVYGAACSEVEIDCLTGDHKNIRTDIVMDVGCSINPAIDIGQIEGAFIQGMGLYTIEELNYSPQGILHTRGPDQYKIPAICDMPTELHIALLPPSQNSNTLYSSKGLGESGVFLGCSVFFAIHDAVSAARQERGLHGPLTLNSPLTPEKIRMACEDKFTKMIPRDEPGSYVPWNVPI
Description: Drug metabolism in pooled human hepatocytes assessed as aldehyde oxidase-mediated drug metabolism at 10 uM up to 120 mins by HPLC analysis in presence of 50 uM of hydralazine
measured-quantity: Fm

                                   molecule                              study_target  result
0  CCN(C(C)=O)c1cccc(-c2ccnc3c(C#N)cnn23)c1  Aldehyde oxidase (Homo sapiens, UniProt Q06278)    0.56
1  N=C(N)NC(=O)c1cnn(-c2cccc3ncccc23)c1C1CC1 [ZONIPORIDE]  Aldehyde oxidase (Homo sapiens, UniProt Q06278)    0.55
2    Cc1ncc2n1-c1ccc(Cl)cc1C(c1ccccc1F)=NC2  Aldehyde oxidase (Homo sapiens, UniProt Q06278)    0.05

====

target: Aldehyde oxidase (Homo sapiens); settings: hepatocytes, 2 h, 10 µM
Listed here: items and their measured Fm.
measured-quantity: Fm

entry-smiles	study-target	result
CC[C@H]1OC(=O)[C@H](C)C(=O)[C@H](C)[C@@H](O[C@@H]2O[C@H](C)C[C@H](N(C)C)[C@H]2O)[C@](C)(OC)C[C@@H](C)C(=O)[C@H](C)[C@H]2N(C3CN([C@H](C)c4ccnc5ncccc45)C3)C(=O)O[C@]12C	Aldehyde oxidase (Homo sapiens)	0.61
COc1ccc2c(c1)[C@]13CCCC[C@@H]1[C@H](C2)N(C)CC3	Aldehyde oxidase (Homo sapiens)	0.39
CN(C)CCNC(=O)c1cccc2cc3ccccc3nc12	Aldehyde oxidase (Homo sapiens)	0.76
Nc1nc(OCc2ccccc2)c2[nH]cnc2n1	Aldehyde oxidase (Homo sapiens)	0.83
CCNC(=O)OC1CCN(c2nncc3cc(OC)c(OC)cc23)CC1	Aldehyde oxidase (Homo sapiens)	0.55

====

target: CYP2C8 (Homo sapiens, UniProt P10632); assay: in vitro; conditions: liver microsomes, probe paclitaxel
Sequence (P10632 whole entry): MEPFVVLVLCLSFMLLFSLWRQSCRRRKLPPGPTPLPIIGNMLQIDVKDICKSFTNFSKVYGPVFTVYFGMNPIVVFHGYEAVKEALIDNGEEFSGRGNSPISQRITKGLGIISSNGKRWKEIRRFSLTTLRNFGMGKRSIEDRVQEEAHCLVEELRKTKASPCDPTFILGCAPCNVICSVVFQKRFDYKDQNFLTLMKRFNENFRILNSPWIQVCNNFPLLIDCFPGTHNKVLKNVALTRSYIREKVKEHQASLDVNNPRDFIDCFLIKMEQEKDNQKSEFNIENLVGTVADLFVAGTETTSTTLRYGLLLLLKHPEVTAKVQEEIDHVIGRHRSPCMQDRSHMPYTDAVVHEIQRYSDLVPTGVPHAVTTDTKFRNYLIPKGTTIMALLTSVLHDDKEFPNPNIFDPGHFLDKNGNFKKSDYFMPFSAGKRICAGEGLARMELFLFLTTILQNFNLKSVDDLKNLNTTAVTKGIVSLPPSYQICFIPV
Description: Inhibition of CYP2C8 in human liver microsomes assessed as residual activity using paclitaxel as substrate at 25 uM relative to control
measured-quantity: activity at 25 µM (%)

>>> print(df.to_string())
                         molecule  measured_quantity  units_label  result
0  NNc1nncc2ccccc12 [HYDRALAZINE]  activity at 25 µM            %     108

====

molecular target: CYP2D6 (Homo sapiens, UniProt P10635); assay: in vitro; settings: liver microsomes, probe dextromethorphan
Sequence (P10635 whole entry): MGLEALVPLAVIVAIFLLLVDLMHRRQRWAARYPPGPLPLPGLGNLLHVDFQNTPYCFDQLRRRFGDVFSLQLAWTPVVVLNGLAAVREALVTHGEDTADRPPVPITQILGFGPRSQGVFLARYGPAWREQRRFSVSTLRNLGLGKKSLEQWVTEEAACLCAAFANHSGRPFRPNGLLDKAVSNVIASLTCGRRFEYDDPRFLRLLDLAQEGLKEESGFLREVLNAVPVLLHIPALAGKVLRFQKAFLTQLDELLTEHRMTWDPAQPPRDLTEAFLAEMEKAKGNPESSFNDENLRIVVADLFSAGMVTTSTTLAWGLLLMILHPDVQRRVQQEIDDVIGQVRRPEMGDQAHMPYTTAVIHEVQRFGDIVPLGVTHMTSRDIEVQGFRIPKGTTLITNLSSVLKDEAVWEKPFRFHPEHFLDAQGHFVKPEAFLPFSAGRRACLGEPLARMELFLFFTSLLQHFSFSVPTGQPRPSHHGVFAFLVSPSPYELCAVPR
Description: Inhibition of CYP2D6 in human liver microsomes assessed as residual activity using dextromethorphan as substrate at 25 uM relative to control
measured-quantity: activity at 25 µM

>>> print(df.to_string())
                         compound  measured_quantity  result
0  NNc1nncc2ccccc12 [HYDRALAZINE]  activity at 25 µM     92%

====

molecular target: CYP3A (Homo sapiens, UniProt P08684+P20815+P24462+Q9HB55); assay: Inhibition of CYP3A in human liver microsomes assessed as residual activity using midazolam as substrate at 50 uM relative to control; details: probe midazolam
measured-quantity: activity at 50 µM (%)

>>> print(df.to_string())
                         compound  measured_quantity  result
0  NNc1nncc2ccccc12 [HYDRALAZINE]  activity at 50 µM      76
